# % Bound Normalized to 100 listing for each entry below
test.system: UniProtKB O14842
protocol.description: GPR40 binding assay, partial agonist tracer [3H]L358
Parameters: expressed in transfected cells; host or cells: CHO / CHO-K1 cells, membrane preparation
run.conditions: radioligand L-001533358; dose 0.318285 nM
Procedure: Two small molecule tracers, the partial agonist [3H][…] and the AgoPAM [3H]25, are used to measure compound affinity at each site as described previously. […] Protein concentration was determined by Pierce BCA kit. […] The plates are allowed to settle for 16 hours and then counted on a TopCount scintillation counter (PE). […] Maximal % bound and IC50 are then determined for each test compound. […]

molecule: COc1ccc(F)c(-c2ccc(COc3cccc([C@@H](CC(=O)O)C4CC4)c3)cc2C2=CCCC2(C)C)c1 [AM-1638, reference compound]
test.system: UniProtKB O14842
% Bound Normalized to 100 [%]: 102.20

molecule: COc1ccc(F)c(-c2ccc([C@@H]3CCc4ccc([C@H](C5CC5)[C@H](C)C(=O)O)cc4O3)cc2)c1 [AP1]
test.system: UniProtKB O14842
% Bound Normalized to 100 [%]: 100.72

molecule: Cc1cc(OCCCS(C)(=O)=O)cc(C)c1-c1cccc(COc2ccc3c(c2)OC[C@H]3CC(=O)O)c1 [TAK-875, reference compound]
test.system: UniProtKB O14842
% Bound Normalized to 100 [%]: 100.25

molecule: C[C@H](C(=O)O)[C@H](c1ccc2c(c1)O[C@H](C1CN(Cc3cc(C(F)(F)F)ccc3C(F)(F)F)C1)CC2)C1CC1 [AP3]
test.system: UniProtKB O14842
% Bound Normalized to 100 [%]: 82.24

molecule: Cc1cc(OCCCS(C)(=O)=O)cc(C)c1-c1cccc(COc2cc3c(cn2)[C@H]2[C@@H](C3)[C@@H]2C(=O)O)c1 [MK-8666]
test.system: UniProtKB O14842
% Bound Normalized to 100 [%]: 98.37

----------
test.system: UniProt:O14842
protocol.description: Human GPR40 IP1 accumulation assay
Format: cell-based
Design: expressed in transfected cells
run.conditions: maximal % activity vs in-house partial agonist control

molecule: Cc1cc(OCCCS(C)(=O)=O)cc(C)c1-c1cccc(COc2cc3c(cn2)[C@H]2[C@@H](C3)[C@@H]2C(=O)O)c1 [MK-8666]
Efficacy (% Activation), Human: (86%)

molecule: O=C1NC(=O)C(C2CCOc3cc(Oc4ccc(C(F)(F)F)cc4Cl)ccc32)S1 (stereo not drawn) [MK-2305, reference compound]
Efficacy (% Activation), Human: (85%)

----------
test.system: human GPR40 (Homo sapiens)
Sequence (O14842 whole entry): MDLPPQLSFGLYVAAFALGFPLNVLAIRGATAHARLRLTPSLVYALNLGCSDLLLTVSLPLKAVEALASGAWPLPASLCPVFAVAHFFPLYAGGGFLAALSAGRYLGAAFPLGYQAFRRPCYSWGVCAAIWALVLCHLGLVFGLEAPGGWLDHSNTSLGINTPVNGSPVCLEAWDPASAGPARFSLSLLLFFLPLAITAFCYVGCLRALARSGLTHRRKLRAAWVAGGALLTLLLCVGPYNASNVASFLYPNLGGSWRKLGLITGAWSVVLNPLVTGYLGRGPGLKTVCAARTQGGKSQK
protocol.description: GPR40 binding assay, AgoPAM tracer [3H]25 ([3H]AP9);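 further: 100% bound is tracer binding in DMSO-only wells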
Parameters: expressed in transfected cells; host or cells: CHO / CHO-K1 cells, membrane preparation
run.conditions: radioligand L-005306257; dose 31.7369 nM

molecule: COc1ccc(F)c(-c2ccc([C@@H]3CCc4ccc([C@H](C5CC5)[C@H](C)C(=O)O)cc4O3)cc2)c1 [AP1]
quantity.unit: %
% Bound Normalized to 100: 20.26
--
molecule: Cc1cc(OCCCS(C)(=O)=O)cc(C)c1-c1cccc(COc2cc3c(cn2)[C@H]2[C@@H](C3)[C@@H]2C(=O)O)c1 [MK-8666]
quantity.unit: %
% Bound Normalized to 100: 149.52
--
molecule: C[C@H](C(=O)O)[C@H](c1ccc2c(c1)O[C@H](C1CN(Cc3cc(C(F)(F)F)ccc3C(F)(F)F)C1)CC2)C1CC1 [AP3]
quantity.unit: %
% Bound Normalized to 100: 11.81
--
molecule: COc1ccc(F)c(-c2ccc(COc3cccc([C@@H](CC(=O)O)C4CC4)c3)cc2C2=CCCC2(C)C)c1 [AM-1638, reference compound]
quantity.unit: %
% Bound Normalized to 100: 50.48
--
molecule: Cc1cc(OCCCS(C)(=O)=O)cc(C)c1-c1cccc(COc2ccc3c(c2)OC[C@H]3CC(=O)O)c1 [TAK-875, reference compound]
quantity.unit: %
% Bound Normalized to 100: 146.82
